Measured IC50 accompanies every entry in the list below.
target: EGFR (UniProt P00533)
Sequence (P00533 whole entry, looked up): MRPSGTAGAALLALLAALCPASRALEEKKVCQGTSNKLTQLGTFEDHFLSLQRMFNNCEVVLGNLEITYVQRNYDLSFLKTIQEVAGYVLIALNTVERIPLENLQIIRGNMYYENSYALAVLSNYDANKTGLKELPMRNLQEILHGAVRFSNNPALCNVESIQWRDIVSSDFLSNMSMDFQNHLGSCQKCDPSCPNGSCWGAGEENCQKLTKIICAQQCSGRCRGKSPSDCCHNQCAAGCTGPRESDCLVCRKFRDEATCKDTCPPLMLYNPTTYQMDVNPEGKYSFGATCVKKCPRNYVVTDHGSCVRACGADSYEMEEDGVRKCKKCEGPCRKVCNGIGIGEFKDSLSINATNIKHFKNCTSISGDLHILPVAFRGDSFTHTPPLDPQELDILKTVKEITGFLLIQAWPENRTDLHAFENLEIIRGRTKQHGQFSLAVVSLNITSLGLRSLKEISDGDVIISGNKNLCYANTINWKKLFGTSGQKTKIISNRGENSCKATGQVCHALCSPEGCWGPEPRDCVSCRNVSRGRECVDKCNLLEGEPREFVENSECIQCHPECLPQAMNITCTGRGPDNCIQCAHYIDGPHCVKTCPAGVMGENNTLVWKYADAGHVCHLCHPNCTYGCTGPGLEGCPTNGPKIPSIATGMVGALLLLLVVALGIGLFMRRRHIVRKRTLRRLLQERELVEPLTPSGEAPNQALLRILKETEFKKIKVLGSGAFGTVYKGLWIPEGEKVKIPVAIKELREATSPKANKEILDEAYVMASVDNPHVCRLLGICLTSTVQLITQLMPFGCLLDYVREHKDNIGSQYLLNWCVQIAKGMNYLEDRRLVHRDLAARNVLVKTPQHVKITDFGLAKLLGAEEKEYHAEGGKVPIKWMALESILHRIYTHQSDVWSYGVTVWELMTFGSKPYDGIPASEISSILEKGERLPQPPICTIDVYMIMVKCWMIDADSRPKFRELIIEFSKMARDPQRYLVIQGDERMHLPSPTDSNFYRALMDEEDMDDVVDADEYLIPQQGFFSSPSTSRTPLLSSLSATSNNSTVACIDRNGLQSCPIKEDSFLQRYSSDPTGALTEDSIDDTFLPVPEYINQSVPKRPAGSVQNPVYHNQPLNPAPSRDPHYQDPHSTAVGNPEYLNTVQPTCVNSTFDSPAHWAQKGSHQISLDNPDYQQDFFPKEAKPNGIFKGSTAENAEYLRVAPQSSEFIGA

Recorded IC50 for O=c1[nH]c2ccccc2n1-c1ncnc(Nc2ccccc2)n1 , please?
> 4.5 µg/mL

Endpoint output: IC50 of COc1cc(Nc2ncnc(-c3cccnc3Nc3cc(Cl)cc(Cl)c3)n2)cc(OC)c1OC . Value?
> 4.5 µg/mL

---

target: UniProt P00533
Assay Readout: IC50

Previously resolved entries follow.
- Molecule Smiles: "COc1ccc(-c2ncnc(Nc3cc(OC)c(OC)c(OC)c3)n2)cc1OC"
  IC50: "3.5 to 4.5 mg/L"
- Molecule Smiles: "COc1cc(Nc2ncnc(-c3cccnc3Nc3ccccc3C)n2)cc(OC)c1OC"
  IC50: "> 4.5 mg/L"
- Molecule Smiles: "COc1cc(Nc2ncnc(Nc3cc(-c4cccc(C)c4)n[nH]3)n2)cc(OC)c1OC"
  IC50: "0.4 to 2.4 mg/L"
- Molecule Smiles: "Fc1ccc(Nc2ncnc(Nc3ccc4[nH]ccc4c3)n2)cc1Cl"
  IC50: "< 0.4 mg/L"
- Molecule Smiles: "COc1cc(Nc2ncnc(N[C@@H]3CCCc4ccccc43)n2)cc(OC)c1OC"
  IC50: "0.4 to 2.4 mg/L"

Provide value of IC50 for this record tested with UniProt P00533: COC(=O)c1ccc(-c2cc(Nc3ncnc(NCCN4CCOCC4)n3)[nH]n2)cc1
2.4 to 3.5 mg/L

Item: NC(=O)c1cccc(Nc2ncnc(-n3c(=O)[nH]c4ccccc43)n2)c1 Test system: UniProt P00533 Read-out: IC50 Value: ?
> 4.5 mg/L

// lookup IC50 | system=UniProt P00533 | key= O=c1[nH]c2ccccc2n1-c1ncnc(Nc2cccc(OC(F)(F)F)c2)n1
> 4.5 mg/L

Notebook entry, UniProt P00533 assay: IC50 of COC(=O)c1sccc1Nc1ncnc(N2CCCc3cc(C)ccc32)n1 = ?
> 4.5 mg/L

// map COc1cc(Nc2ncnc(-n3c(N[C@@H](CO)c4ccccc4)nc4ccccc43)n2)cc(OC)c1OC to recorded IC50 (system: UniProt P00533)
0.4 to 2.4 mg/L

---

Entries with their measured IC50, system EGFR (UniProt P00533):

Consider the worked cases shown below.
- Compound: "COc1cc(Nc2ncnc(-c3cccnc3NC3CCc4ccccc43)n2)cc(OC)c1OC (stereo not given)"
  Measurement: "2.4 to 3.5 µg/mL"
- Compound: "c1ccc(CCNc2ncnc(Nc3ccc4c(cnn4Cc4ccccc4)c3)n2)cc1"
  Measurement: "> 4.5 µg/mL"
- Compound: "COc1cc(Nc2ncnc(N(C)c3cccc(Cl)c3)n2)cc2ccccc12"
  Measurement: "< 0.4 µg/mL"
- Compound: "COc1ccccc1Nc1nc2ccccc2n1-c1ncnc(Nc2cc(OC)c(OC)c(OC)c2)n1"
  Measurement: "> 4.5 µg/mL"
- Compound: "O=C(O)/C=C/c1ccc(Nc2ncnc(Nc3cc(-c4ccco4)[nH]n3)n2)cc1"
  Measurement: "< 0.4 µg/mL"
- Compound: "COc1cc(Nc2ncnc(-n3c(NCc4ccccn4)nc4ccccc43)n2)cc(OC)c1OC"
  Measurement: "> 4.5 µg/mL"

Name the reported IC50 value associated with the compound CN(c1cccc(Cl)c1)c1ncnc(Nc2ccc3c(cnn3C)c2)n1
< 0.4 µg/mL

Value lookup for IC50; key = CCOc1cccc(Nc2ncnc(Nc3ccc(OC)c(OC)c3)n2)c1
> 4.5 µg/mL

// IC50 lookup, key: CN(c1cccc(Cl)c1)c1ncnc(Nc2ccc(OC(F)(F)F)cc2)n1
0.4 to 2.4 µg/mL

Looking for the measured IC50 of COc1ccc(Nc2ncnc(Nc3cc(Cl)cc(Cl)c3)n2)cc1OC , can you help?
2.4 to 3.5 µg/mL

---

The next entries give measured IC50 for UniProt:P00533.

Would you please look over these solved cases?
- Compound: "Cc1cccc(Nc2ncnc(N(C)c3cccc(Cl)c3)n2)c1"
  IC50: "< 0.4 µg/mL"
- Compound: "CCOC(=O)Cc1ccc(Nc2ncnc(Nc3cc(OC)c(OC)c(OC)c3)n2)cc1"
  IC50: "< 0.4 µg/mL"
- Compound: "COc1cc(Nc2ncnc(Nc3cc(F)ccc3F)n2)cc(OC)c1OC"
  IC50: "0.4 to 2.4 µg/mL"
- Compound: "COc1cc(Nc2ncnc(NC(=O)NCc3ccccc3)n2)cc(OC)c1OC"
  IC50: "0.4 to 2.4 µg/mL"
- Compound: "COc1cc(Nc2ncnc(Nc3ccccc3C)n2)cc(OC)c1OC"
  IC50: "2.4 to 3.5 µg/mL"

Reported IC50 for UniProt:P00533, given O=C(O)Cc1cccc(Nc2ncnc(-n3c(NCc4ccccn4)nc4ccccc43)n2)c1 ?
> 4.5 µg/mL

Query the reported IC50 for UniProt:P00533; item: Cc1ccc2c(c1)CCCN2c1ncnc(NCCc2cccnc2)n1
> 4.5 µg/mL

Form: Entry = COc1cc(Nc2ncnc(Nc3cccc(F)c3)n2)cc(OC)c1OC | System = UniProt:P00533 | IC50 = ____
< 0.4 µg/mL

Provide value of IC50 for this record tested with UniProt:P00533: COc1ccc(Nc2ncnc(-n3c(N)nc4ccccc43)n2)cn1
> 4.5 µg/mL

Record Fc1ccc(Nc2ncnc(Cl)n2)cc1Cl : what is its IC50 with UniProt:P00533?
> 4.5 µg/mL

Given the entry Nc1ncnc(Nc2cccc(Cl)c2)n1 , what IC50 was observed with UniProt:P00533?
> 4.5 µg/mL

IC50 of c1coc(-c2cc(Nc3ncnc(Nc4nc[nH]n4)n3)n[nH]2)c1 on UniProt:P00533?
0.4 to 2.4 µg/mL

# returns recorded IC50 (system: UniProt:P00533) for NC(=O)c1ccc(Nc2ncnc(-n3c(=O)[nH]c4ccccc43)n2)cc1
> 4.5 µg/mL

What is its IC50 for UniProt:P00533? Entry: COc1cc(Nc2ncnc(-n3ccc4c(OC)cccc43)n2)cc(OC)c1OC
> 4.5 µg/mL

---

Parameter 'readout' = IC50; parameter 'system' = EGFR (UniProt P00533).

- Compound: "O=c1[nH]c2ccccc2n1-c1ncnc(Nc2ccc3ncccc3c2)n1"
  Measurement: "3.5 to 4.5 mg/L"
- Compound: "CCN(CC)c1ccc(Nc2ncnc(N3CCCc4cc(C)ccc43)n2)cc1"
  Measurement: "> 4.5 mg/L"
- Compound: "COc1cc(Nc2ncnc(Nc3cc(OC)c(OC)c(OC)c3)n2)ccc1OCCN1CCOCC1"
  Measurement: "0.4 to 2.4 mg/L"
- Compound: "CCOC(=O)C(Nc1nc2ccccc2n1-c1ncnc(Nc2cc(OC)c(OC)c(OC)c2)n1)c1ccccc1 (stereo unspecified)"
  Measurement: "> 4.5 mg/L"
- Compound: "Cc1ccc(-c2cc(Nc3ncnc(Nc4cc(C)ccc4C)n3)[nH]n2)cc1"
  Measurement: "< 0.4 mg/L"
- Compound: "COc1cc(Nc2ncnc(Nc3ccc(O)cc3C)n2)cc(OC)c1OC"
  Measurement: "2.4 to 3.5 mg/L"

Request body: readout IC50, system EGFR (UniProt P00533), query COc1cc(C)c(Nc2ncnc(Nc3cc(-c4ccc(Cl)cc4)n[nH]3)n2)cc1OC . Return the value.
3.5 to 4.5 mg/L

// map COC(=O)c1ccc(-c2cc(Nc3ncnc(Nc4cccc(CC(=O)O)c4)n3)[nH]n2)cc1 to recorded IC50 (system: EGFR (UniProt P00533))
0.4 to 2.4 mg/L

Identify the measured IC50 of COc1ccc(Nc2ncnc(Nc3cc(OC)c(OC)c(OC)c3)n2)cc1OCCN1CCOCC1 for EGFR (UniProt P00533).
3.5 to 4.5 mg/L

EGFR (UniProt P00533) / IC50 / COC(=O)c1cccc(Nc2nc3ccccc3n2-c2ncnc(Nc3cc(OC)c(OC)c(OC)c3)n2)c1 : value?
> 4.5 mg/L

So what IC50 did COc1ccc(Nc2ncnc(NCc3ncc(C(F)(F)F)cc3Cl)n2)cc1OC get with EGFR (UniProt P00533)?
2.4 to 3.5 mg/L

Please provide the recorded IC50 for NC(=O)Cc1cccc(Nc2ncnc(-n3c(NCc4ccccc4)nc4ccccc43)n2)c1 , tested on EGFR (UniProt P00533).
< 0.4 mg/L

Record lookup: for EGFR (UniProt P00533), what IC50 belongs to COc1ccc(Nc2ncnc(NCc3c(C)cccc3Cl)n2)cc1OC ?
> 4.5 mg/L

Query IC50 on EGFR (UniProt P00533) for COc1cc(Nc2ncnc(Nc3cccc(C(C)=O)c3)n2)cc(OC)c1OC
0.4 to 2.4 mg/L

Checklist item: IC50 tested on EGFR (UniProt P00533), entry COc1cc(Nc2ncnc(-c3c(O)n(C)c4ccccc34)n2)cc(OC)c1OC , value?
> 4.5 mg/L

---

Overview of recorded IC50 for various compounds
molecular target: UniProtKB P00533

- Molecule Smiles: "COc1cc(Nc2ncnc(-c3cccnc3CCN)n2)cc(OC)c1OC"
  Measurement Target: "UniProtKB P00533"
  IC50: "> 4.5 µg/mL"
- Molecule Smiles: "NC(=O)c1ccc(Nc2ncnc(-c3cccnc3NCc3cccs3)n2)cc1"
  Measurement Target: "UniProtKB P00533"
  IC50: "0.4 to 2.4 µg/mL"
- Molecule Smiles: "COc1ccc(N(C)c2ncnc(Nc3ccc(OC)c(OC)c3)n2)cc1"
  Measurement Target: "UniProtKB P00533"
  IC50: "< 0.4 µg/mL"

Fill in the blank: the reported IC50 of COc1ccc(CNc2nc3ccccc3n2-c2ncnc(Nc3cc(OC)c(OC)c(OC)c3)n2)cc1OC is ____.
2.4 to 3.5 µg/mL

I'd like to know its IC50. The compound in question is C=CCNc1ncccc1-c1ncnc(Nc2cc(OC)c(OC)c(OC)c2)n1
> 4.5 µg/mL
